Test system: 266 human PDZ domains (PDZome)
test.description: Holdup assay (chromatographic retention, PDZome-binding profile, BI)
Set-up: key: binding intensity: 0.00 = no binding, 1.00 = maximal binding
particulars: PDZ domain SCRIB-4
*1 amine or outer side, *2 acyl side, *3 side chain or, on linkers, in order; H or OH if unused. Where a SMILES comes first, the peptide text is derived from it. The star is where a group is joined. X1 = O=C(CCCC[C@@H]1SC[C@@H]2NC(=O)N[C@@H]21)NCCCOCCOCCOCCCN*; Suc = O=C(CCC(=O)[*:2])[*:1]
reported.property: BI

Entry `CC[C@H](C)[C@H](NC(=O)[C@H](CCC(N)=O)NC(=O)[C@@H](NC(=O)[C@H](Cc1c[nH]cn1)NC(=O)[C@H](CCC(N)=O)NC(=O)[C@H](CC(=O)O)NC(=O)[C@H](CCC(=O)O)NC(=O)[C@H](CC(=O)O)NC(=O)CCC(=O)NCCCOCCOCCOCCCNC(=O)CCCC[C@@H]1SC[C@@H]2NC(=O)N[C@@H]21)[C@@H](C)O)C(=O)N[C@H](C(=O)N[C@@H](CCCCN)C(=O)N[C@H](C(=O)O)C(C)C)[C@@H](C)O` ; BI = 0.061

Entry `CC[C@H](C)[C@H](NC(=O)[C@H](CCC(N)=O)NC(=O)[C@@H](NC(=O)[C@H](Cc1c[nH]cn1)NC(=O)[C@H](CCC(N)=O)NC(=O)[C@H](CC(=O)O)NC(=O)[C@H](CCC(=O)O)NC(=O)[C@H](CC(=O)O)NC(=O)CCC(=O)NCCCOCCOCCOCCCNC(=O)CCCC[C@@H]1SC[C@@H]2NC(=O)N[C@@H]21)[C@@H](C)O)C(=O)N[C@H](C(=O)N[C@@H](CCCCNC(C)=O)C(=O)N[C@H](C(=O)O)C(C)C)[C@@H](C)O` ; BI = 0.058

Entry CC[C@H](C)[C@H](NC(=O)[C@H](CCC(N)=O)NC(=O)[C@@H](NC(=O)[C@H](Cc1c[nH]cn1)NC(=O)[C@H](CCC(N)=O)NC(=O)[C@H](CC(=O)O)NC(=O)[C@H](CCC(=O)O)NC(=O)[C@H](CC(=O)O)NC(=O)[C@H](Cc1ccccc1)NC(=O)[C@@H]1CCCN1C(=O)CCC(=O)NCCCOCCOCCOCCCNC(=O)CCCC[C@@H]1SC[C@@H]2NC(=O)N[C@@H]21)[C@@H](C)O)C(=O)N[C@H](C(=O)N[C@@H](CCCCN)C(=O)N[C@H](C(=O)O)C(C)C)[C@@H](C)O [PTEN_13] ({X1-Suc}-PFDEDQHTQITKV-OH) ; BI = -0.007

Entry CC[C@H](C)[C@H](NC(=O)[C@H](CCC(N)=O)NC(=O)[C@@H](NC(=O)[C@H](Cc1c[nH]cn1)NC(=O)[C@H](CCC(N)=O)NC(=O)[C@H](CC(=O)O)NC(=O)[C@H](CCC(=O)O)NC(=O)[C@H](CC(=O)O)NC(=O)CCC(=O)NCCCOCCOCCOCCCNC(=O)CCCC[C@@H]1SC[C@@H]2NC(=O)N[C@@H]21)[C@@H](C)O)C(=O)N[C@H](C(=O)N[C@@H](CCCNC(=N)N)C(=O)N[C@H](C(=O)O)C(C)C)[C@@H](C)O [PTEN_KR] ({X1-Suc}-DEDQHTQITRV-OH) ; BI = 0.039

All figures here come from paper PMC7774954.
